The measurements presented in this section are drawn from paper PMC7760315.

MEASUREMENT TARGET: GlyRα3/GlyT1 (Homo sapiens, UniProt O75311)
Sequence (O75311 34-464): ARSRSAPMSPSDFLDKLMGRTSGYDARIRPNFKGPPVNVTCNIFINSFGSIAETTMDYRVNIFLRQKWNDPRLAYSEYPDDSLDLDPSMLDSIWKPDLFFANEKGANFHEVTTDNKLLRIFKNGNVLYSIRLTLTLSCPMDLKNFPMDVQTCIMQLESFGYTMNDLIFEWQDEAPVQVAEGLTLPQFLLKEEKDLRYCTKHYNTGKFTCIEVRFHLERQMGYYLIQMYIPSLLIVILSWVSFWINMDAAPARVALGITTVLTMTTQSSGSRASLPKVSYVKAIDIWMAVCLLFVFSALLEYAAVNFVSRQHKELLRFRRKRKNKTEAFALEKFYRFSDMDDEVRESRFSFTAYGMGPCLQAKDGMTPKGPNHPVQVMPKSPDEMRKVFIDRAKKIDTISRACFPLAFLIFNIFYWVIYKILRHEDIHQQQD
CONDITION LABEL: read-out: Fast-Flow Glycine EC50
OUTCOME MEASURE: pEC50
One number for each entry, as −log10 of the molar value.

Q: Kindly state the measured pEC50 obtained for NCC(=O)O [glycine] with GlyRα3/GlyT1 (Homo sapiens, UniProt O75311).
Ans: 3.81

====

MEASUREMENT TARGET: GlyRα3β/GlyT2 (Homo sapiens, UniProt O75311+P48167)
Sequence (P48167 23-497, one chain of several): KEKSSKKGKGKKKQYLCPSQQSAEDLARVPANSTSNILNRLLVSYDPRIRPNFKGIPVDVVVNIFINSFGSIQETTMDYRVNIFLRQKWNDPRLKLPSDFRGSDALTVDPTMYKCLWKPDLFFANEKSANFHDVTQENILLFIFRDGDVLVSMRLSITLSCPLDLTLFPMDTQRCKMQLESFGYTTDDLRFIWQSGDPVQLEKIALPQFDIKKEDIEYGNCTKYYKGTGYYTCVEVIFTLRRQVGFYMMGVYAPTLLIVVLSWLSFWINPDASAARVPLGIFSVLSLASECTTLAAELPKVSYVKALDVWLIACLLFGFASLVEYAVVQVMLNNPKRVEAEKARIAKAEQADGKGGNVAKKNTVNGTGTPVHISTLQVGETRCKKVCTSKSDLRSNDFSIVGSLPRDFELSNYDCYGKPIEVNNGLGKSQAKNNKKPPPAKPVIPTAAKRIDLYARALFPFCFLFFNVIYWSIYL
CONDITION LABEL: read-out: Fast-Flow Glycine EC50
OUTCOME MEASURE: EC50
# include the unit after the value

Q: State the recorded EC50 for this entry: NCC(=O)O [glycine]
Ans: 224 µM

====

MEASUREMENT TARGET: GlyRα3 (Homo sapiens, UniProt O75311)
CONDITION LABEL: read-out: Fast-Flow Glycine EC50
OUTCOME MEASURE: EC50 (µM)
Give bare numbers, in µM.

Q: Item NCC(=O)O has what recorded EC50?
Ans: 64.8

====

MEASUREMENT TARGET: GlyRα1/GlyT1 (Homo sapiens, UniProt P23415)
ASSAY EXPLANATION: Two-electrode voltage clamp, oocytes co-expressing GlyRα1/GlyT1
CONDITION LABEL: non-transportable GlyR agonist; read-out: β-alanine EC50
OUTCOME MEASURE: EC50 (µM)
One number for each entry, in µM.

Q: GET /values?readout=EC50&item= NCCC(=O)O [β-alanine]
Ans: 28

====

MEASUREMENT TARGET: GlyRα3/GlyT2 (Homo sapiens, UniProt O75311)
CONDITION LABEL: read-out: Fast-Flow Glycine EC50
OUTCOME MEASURE: pEC50
Numbers only, as −log10 of the molar value.

Q: Quick check: pEC50 of NCC(=O)O ?
Ans: 3.80

====

MEASUREMENT TARGET: GlyRα1/GlyT2 (Homo sapiens)
Sequence (P23415 29-457): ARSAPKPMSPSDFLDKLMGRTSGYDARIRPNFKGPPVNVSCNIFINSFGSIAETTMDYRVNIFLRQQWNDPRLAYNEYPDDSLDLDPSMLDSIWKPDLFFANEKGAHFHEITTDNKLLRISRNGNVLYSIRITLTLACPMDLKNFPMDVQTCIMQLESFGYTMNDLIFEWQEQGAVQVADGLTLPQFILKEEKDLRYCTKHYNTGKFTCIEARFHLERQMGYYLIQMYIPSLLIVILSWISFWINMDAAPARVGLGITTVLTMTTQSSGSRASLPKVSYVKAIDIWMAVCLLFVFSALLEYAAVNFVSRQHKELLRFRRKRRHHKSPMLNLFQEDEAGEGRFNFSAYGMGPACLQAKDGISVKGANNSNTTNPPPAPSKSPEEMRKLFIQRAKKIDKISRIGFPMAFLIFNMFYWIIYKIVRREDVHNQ
Sequence (Q9Y345 whole entry partner): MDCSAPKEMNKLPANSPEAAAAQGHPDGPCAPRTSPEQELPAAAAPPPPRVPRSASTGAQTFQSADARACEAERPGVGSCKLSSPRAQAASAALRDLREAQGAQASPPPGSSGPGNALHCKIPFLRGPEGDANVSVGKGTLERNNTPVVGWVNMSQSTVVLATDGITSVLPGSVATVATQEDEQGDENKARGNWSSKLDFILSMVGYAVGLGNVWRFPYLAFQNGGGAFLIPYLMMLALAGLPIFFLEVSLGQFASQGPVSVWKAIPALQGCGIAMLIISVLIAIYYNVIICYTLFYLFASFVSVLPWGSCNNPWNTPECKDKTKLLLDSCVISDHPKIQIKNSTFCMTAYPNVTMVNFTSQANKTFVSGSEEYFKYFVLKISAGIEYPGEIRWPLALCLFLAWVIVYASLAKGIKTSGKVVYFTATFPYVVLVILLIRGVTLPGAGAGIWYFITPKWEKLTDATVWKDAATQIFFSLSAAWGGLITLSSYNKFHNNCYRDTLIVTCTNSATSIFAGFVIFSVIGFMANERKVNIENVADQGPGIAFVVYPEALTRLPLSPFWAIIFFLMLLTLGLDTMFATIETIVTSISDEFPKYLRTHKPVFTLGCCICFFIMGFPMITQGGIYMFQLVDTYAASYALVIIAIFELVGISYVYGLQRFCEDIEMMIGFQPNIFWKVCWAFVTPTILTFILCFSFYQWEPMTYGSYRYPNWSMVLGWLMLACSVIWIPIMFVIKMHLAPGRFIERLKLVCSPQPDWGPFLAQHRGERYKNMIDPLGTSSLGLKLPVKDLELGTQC
ASSAY EXPLANATION: Two-electrode voltage clamp, oocytes co-expressing GlyRα1/GlyT2
OUTCOME MEASURE: EC50 (µM)
Give bare numbers, in µM.

Q: Reported EC50, compound NCCC(=O)O [β-alanine] : ____
Ans: 27.4

====

System: GlyRα1/GlyT2
ASSAY EXPLANATION: Two-electrode voltage clamp, oocytes co-expressing GlyRα1/GlyT2
Assay type: cell-based, human
CONDITION LABEL: read-out: Glycine EC50
OUTCOME MEASURE: pEC50
Answers are plain numbers, as −log10 of the molar value.

Q: What value of pEC50 has been reported for the following compound? NCC(=O)O [glycine]
Ans: 4.64

====

MEASUREMENT TARGET: UniProt P23415
ASSAY EXPLANATION: Two-electrode voltage clamp, Xenopus laevis oocytes expressing GlyRα1 alone
CONDITION LABEL: non-transportable GlyR agonist; read-out: β-alanine EC50
OUTCOME MEASURE: EC50 (µM)
Answers are plain numbers, in µM.

Q: Entry NCCC(=O)O : reported EC50 = ?
Ans: 28.3

====

MEASUREMENT TARGET: GlyRα3β/GlyT1 (Homo sapiens, UniProt O75311+P48167)
Sequence (P48167 23-497, one chain of several): as the sequence (P48167 23-497, one chain of several) above
CONDITION LABEL: read-out: Fast-Flow Glycine EC50
OUTCOME MEASURE: EC50 (µM)
One number for each entry, in µM.

Q: Sample NCC(=O)O [glycine] — what was its EC50?
Ans: 220
